# ASSAY: Oral pharmacokinetics in female BALB/c mice
# Assay type: in vivo, mouse
# DETAILS: female, BALB/c, mouse, serum, po, 50 mg/kg, oral 50 mg/kg, Time 0.25 (head prints days); read-out: Serum Free
MEASURED ATTRIBUTE: concentration at 0.25 h (µM)
Give bare numbers, in µM.

concentration at 0.25 h for COc1ccc(C2c3ccc(O)c(C)c3OCC2c2ccc(O)cc2)cc1 (stereo not shown) ? 27.3
